Please go through the items and note down their PBM binding z-score.
Test system: LXRb:RXRa (NR concentration 270 nM, RXRa partner concentration 90 nM)
Assay: PBM binding z-score (relative to random genomic background probes); higher = stronger binding; sequences stand for … in GC…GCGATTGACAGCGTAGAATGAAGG
Enter the number alone.

According to the records, this sequence "CCAGACAGGTGAGAAGGTAACCCAGCCTCGATTA" displays PBM binding z-score of 0.148

The sequence listed as "AGAATGAGGTTATAAGTAGATCAGGGAAGAAAGT" shows PBM binding z-score equal to 1.73

Summary for this sequence, "CCTAGCAGGCCAATCTGGGTCGCTCAAGGCTTGA" : PBM binding z-score is 0.983

Sure, the documented PBM binding z-score for "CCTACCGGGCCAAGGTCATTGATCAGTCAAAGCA" is 2.66

The value of PBM binding z-score measured for the sequence "TAGCCTAGGACATTGGGCCAGTATAGTACGCATC" turned out to be -0.775

Record "CCTCGGAGGACAAAAGGTCAGAGCTGTCCGCTTT" . Reported PBM binding z-score: 3.34

====

System: PPARg DBDmut IVT, anti-PPARg (DBD mutation: PPARg1 K132A/R137A, NR concentration 270 nM)
Assay: PBM binding z-score (relative to random genomic background probes); higher = stronger binding; sequences stand for … in GC…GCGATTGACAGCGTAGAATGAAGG
Class T: PBM binding z-score at least 0.9. Class F: PBM binding z-score below 0.9.

Data request: Answer whether PBM binding z-score of "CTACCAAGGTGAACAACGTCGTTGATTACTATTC" is greater than or equal to 0.9.
Data returned: F

Data request: Dear colleague, could you confirm whether "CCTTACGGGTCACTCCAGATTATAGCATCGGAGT" has PBM binding z-score at or above 0.9?
Data returned: F

Data request: Quick check: does "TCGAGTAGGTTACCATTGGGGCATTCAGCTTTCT" have PBM binding z-score greater than or equal to 0.9?
Data returned: F

Data request: Record "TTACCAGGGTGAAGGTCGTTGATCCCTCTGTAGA" ; criterion: PBM binding z-score no lower than 0.9. Met?
Data returned: F

Data request: Does the reported PBM binding z-score for "AGTCAAAGTTCACTAGGTGACGTAAGATTCAGCT" fall at or above the 0.9 mark?
Data returned: T

Data request: Item "CGTTCAAGGTCAAGGTCAGTGAAAGAGACTCGAA" with PBM binding z-score of 0.9 or above?
Data returned: T

Data request: Please check the record "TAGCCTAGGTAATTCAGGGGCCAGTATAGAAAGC" and state if its PBM binding z-score is at or above 0.9.
Data returned: F

Data request: Please tell me: is the sequence "ACTATTAGTTGACTTAGGGCAACGGATACGACGC" at or over 0.9 in terms of PBM binding z-score?
Data returned: T

Data request: Quick check: does "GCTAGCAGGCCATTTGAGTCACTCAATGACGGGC" have PBM binding z-score greater than or equal to 0.9?
Data returned: F

Data request: Decide: is the reported value of PBM binding z-score for "ATCTCTAGGTAACCTAGTTCAGTGAATGCCGAAC" equal to or greater than 0.9?
Data returned: T

Data request: Does "CAAACTAGGTCAAAGGTCATAGTCGAGCCAACCA" have a reported PBM binding z-score of at least 0.9?
Data returned: T

Data request: Given "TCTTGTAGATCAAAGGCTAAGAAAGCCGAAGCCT" , state whether its PBM binding z-score is at least 0.9.
Data returned: F

Data request: State whether the measured PBM binding z-score reaches 0.9, counting equality as reaching it, for "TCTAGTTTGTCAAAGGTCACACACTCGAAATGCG"
Data returned: T

Data request: Answer whether PBM binding z-score of "GCATATAGGTATTACAAGGTGAAAGTCCGATTGT" is greater than or equal to 0.9.
Data returned: T

Data request: Record "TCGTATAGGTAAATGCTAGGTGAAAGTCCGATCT" ; criterion: PBM binding z-score no lower than 0.9. Met?
Data returned: F

Data request: Threshold query (PBM binding z-score >= 0.9) on "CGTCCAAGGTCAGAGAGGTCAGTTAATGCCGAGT"
Data returned: F

Data request: Item "CGTCAAGGTTCAACTAAGGTAACGTAAAGCACGC" with PBM binding z-score of 0.9 or above?
Data returned: F

Data request: Could you please find out whether "TCTTGTAGATCAACAGGAGGTTAAGAACGATCGA" has PBM binding z-score that meets 0.9 or exceeds it?
Data returned: F

Data request: Reported PBM binding z-score reaches at least 0.9 for "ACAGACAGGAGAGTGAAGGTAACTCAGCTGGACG" ?
Data returned: F

Data request: # check: PBM binding z-score of "TGTCAAAGTTCAAAGATAACGTAAGTATCCACAC" is greater than or equal to 0.9
Data returned: T

Data request: # bool: PBM binding z-score of "TGAATAAGGTTAAAGATCAGGGAACGTGGCGTCG" >= 0.9
Data returned: F

Data request: Has "ACTAGCAGGCCAAGTTTGGGGCACTCAAACAAAG" a recorded PBM binding z-score greater than or equal to 0.9?
Data returned: F

Data request: Is the recorded value of PBM binding z-score equal to or greater than 0.9 for this sequence? "CGAACGAGGGCATGAGTTAATAGCAAATGCCGAT"
Data returned: F

Data request: State whether the measured PBM binding z-score reaches 0.9, counting equality as reaching it, for "TCTTGTAGATCAGCAGGTTAAGAAGGCTGGCCAA"
Data returned: F

Data request: PBM binding z-score >= 0.9 for "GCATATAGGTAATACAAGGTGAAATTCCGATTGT" ?
Data returned: T

Data request: Textbook exercise: given the entry "CGTCCAAGGTCAAAGGTCAGTGACGAGATGACGG" , state whether its PBM binding z-score is greater than or equal to 0.9.
Data returned: F

Data request: Given "CGAACTAGGTCATTGACAGGATAGTGAATAGTAA" , state whether its PBM binding z-score is at least 0.9.
Data returned: T

Data request: Determine whether measured PBM binding z-score meets or exceeds 0.9 for "TCAAGTAGGTTACCAATGGGGCATTCAGCTTTCT"
Data returned: F

Data request: PBM binding z-score >= 0.9 for "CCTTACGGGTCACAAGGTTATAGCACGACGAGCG" ?
Data returned: F

Data request: Does the reported PBM binding z-score for "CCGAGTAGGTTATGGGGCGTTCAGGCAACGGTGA" fall at or above the 0.9 mark?
Data returned: F

Data request: Is it the case that "TCTCGGAGGACACGAAGGTAAGAGCTTTCCAGAG" has PBM binding z-score reaching or exceeding 0.9?
Data returned: F

Data request: Determine whether this sequence has PBM binding z-score no lower than 0.9: "CGAACGGGGGCATGAGTTGATAGCAAATGCCGAT"
Data returned: T

Data request: PBM binding z-score >= 0.9 for "GTCCCAAGGTGAATAGGTCGTTGATGAGTAGGCG" ?
Data returned: F

Data request: Entry "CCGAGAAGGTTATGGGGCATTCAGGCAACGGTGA" : is its PBM binding z-score no less than 0.9?
Data returned: F

Data request: Dear colleague, could you confirm whether "ATCGAAATGTCGAGGTGAGTATAGAGAAAGGGAA" has PBM binding z-score at or above 0.9?
Data returned: F

Data request: Given the entry "TAGCCTAGGTCATTGGGCCAGAATAGTACGCATC" , answer whether its PBM binding z-score meets or surpasses 0.9.
Data returned: F

====

Tested on: RXRa DBDmut IVT, anti-RXR (DBD mutation: RXRa K156A/R161A, NR concentration 90 nM)
Assay: PBM binding z-score (relative to random genomic background probes); higher = stronger binding; sequences stand for … in GC…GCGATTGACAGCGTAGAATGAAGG
Where PBM binding z-score equals or exceeds 1, the correct label is label 1; where it does not, the label is label 0.

Data request: Say whether "CCTACTGGGACAAAAAGGTCATTGATGCCGATAA" shows PBM binding z-score of 1 or more.
Data returned: label 1

Data request: Determine whether measured PBM binding z-score meets or exceeds 1 for "TCGAGTGGGTTAGTCGGGGCATTCAGCCAACATA"
Data returned: label 0

Data request: Quick check, PBM binding z-score >= 1? "CGTCCAAGGTCTGCAGGTCAGTGAAAGCGACGTG"
Data returned: label 0

Data request: In plain terms: is recorded PBM binding z-score at least 1 for "ATATGTAGGTTAAGGGGCATTCAGGTTGGTTCGC" ?
Data returned: label 1

Data request: # bool: PBM binding z-score of "CAAACTAGGTCACGAAAGGTCATAGTCGAATGAC" >= 1
Data returned: label 1

Data request: Check if PBM binding z-score >= 1 (inclusive). Item: "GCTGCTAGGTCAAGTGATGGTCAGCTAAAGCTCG"
Data returned: label 1

Data request: In plain terms: is recorded PBM binding z-score at least 1 for "TAGCCTAGGTCATGCGGGCCAGTACAGTGTCGGC" ?
Data returned: label 0

Data request: Form field: PBM binding z-score at least 1? Entry: "CGAACTAGGTCAGAACAGGAAAGTGAAGGATGAT"
Data returned: label 0

Hello, the source for this data is the supplement of paper PMC6555819, in case you need it.
